biological target: D(2) dopamine receptor (Homo sapiens); assay: Dopamine D2 receptor (DRD2) small molecule antagonists, cell-based qHTS assay (AID 1963595); details: HEK293-DRD2 cAMP HTRF antagonist mode; series mostly up to 92.4 µM; note: % is set by controls: 0 for no effect and ±100 for the full control effect
Results filed as inconclusive are left out. Active and inactive are the calls of the source. Calls come from the whole dose curve; as a rule, active = well fitted inhibition curve with a large enough effect in the signal ratio in the repeat runs, with a control signal flat; inconclusive = weak or mixed curves, or effect the other way; inactive = flat fitted curve, though single readings scatter; the % refers to the signal ratio.
Write down one outcome, taken from 1.0 (active), 0.0 (inactive)

For orientation, consider the following solved cases.
Req: What did this assay record as the result for `N#CC(C#N)=NNc1cccc(Cl)c1` ?
Resp: 0.0

Req: # iterate: `O=S(=O)(O)C(F)(F)C(F)(F)C(F)(F)C(F)(F)F`
Resp: 0.0

Req: # iterate: `BrCCCCBr`
Resp: 0.0

---
Req: What did this assay record as the result for `CC(Cl)(Cl)Cl` ?
Resp: 0.0

Req: # iterate: `CC[C@H]1C[C@H]2[C@@H]3CCC4=CC(=O)CC[C@@H]4[C@H]3CC[C@]2(C)[C@H]1O`
Resp: 0.0

Req: # iterate: `Nc1ccc(Cc2ccc(N)c(Cl)c2)cc1Cl`
Resp: 0.0

Req: # iterate: `O=[N+]([O-])c1cccc2cccc([N+](=O)[O-])c12`
Resp: 0.0

Req: # iterate: COP(=O)(OC)OC(Br)C(Cl)(Cl)Br (stereo not given)
Resp: 0.0

Req: # iterate: `COc1ccc(C=O)cc1O`
Resp: 0.0

Req: # iterate: BrCC(Br)C1CCC(Br)C(Br)C1 (stereo not given)
Resp: 0.0

Req: # iterate: CC(C)[C@H](C(=O)OC(C#N)c1cccc(Oc2ccccc2)c1)c1ccc(OC(F)F)cc1 (stereo not given in full)
Resp: 0.0

Req: # iterate: `C[C@@H](Oc1ccc(Cl)cc1Cl)C(=O)O`
Resp: 0.0

Req: # iterate: `O=[N+]([O-])c1ccc(O)c([N+](=O)[O-])c1`
Resp: 0.0

Req: # iterate: C[C@H]1CC[C@@H]2[C@@H](C)[C@H]3[C@H](C[C@H]4[C@@H]5CC=C6CC(O[C@@H]7O[C@H](CO)[C@H](O)[C@H](O[C@@H]8O[C@H](CO)[C@@H](O)[C@H](O)[C@H]8O)[C@H]7O[C@H]7O[C@@H](C)[C@H](O)[C@@H](O)[C@H]7O)CC[C@]6(C)[C@H]5CC[C@]34C)N2C1 (stereo not given in full)
Resp: 0.0

Req: # iterate: `O=[N+]([O-])c1ccccc1CCl`
Resp: 0.0

Req: # iterate: `O=C(NC(=O)c1c(F)cccc1F)Nc1cc(Cl)c(OC(F)(F)C(F)F)c(Cl)c1`
Resp: 0.0

Req: # iterate: `O=C(Cl)C(Cl)(Cl)Cl`
Resp: 0.0
